# measurementTarget: human TRPM8 (Homo sapiens, UniProt Q7Z2W7)
# Construct: expressed in transfected cells; host or cells: Chinese hamster ovary (CHO) cells, T-REx tetracycline-inducible system, co-transfected with aequorin
# Sequence (Q7Z2W7 whole entry): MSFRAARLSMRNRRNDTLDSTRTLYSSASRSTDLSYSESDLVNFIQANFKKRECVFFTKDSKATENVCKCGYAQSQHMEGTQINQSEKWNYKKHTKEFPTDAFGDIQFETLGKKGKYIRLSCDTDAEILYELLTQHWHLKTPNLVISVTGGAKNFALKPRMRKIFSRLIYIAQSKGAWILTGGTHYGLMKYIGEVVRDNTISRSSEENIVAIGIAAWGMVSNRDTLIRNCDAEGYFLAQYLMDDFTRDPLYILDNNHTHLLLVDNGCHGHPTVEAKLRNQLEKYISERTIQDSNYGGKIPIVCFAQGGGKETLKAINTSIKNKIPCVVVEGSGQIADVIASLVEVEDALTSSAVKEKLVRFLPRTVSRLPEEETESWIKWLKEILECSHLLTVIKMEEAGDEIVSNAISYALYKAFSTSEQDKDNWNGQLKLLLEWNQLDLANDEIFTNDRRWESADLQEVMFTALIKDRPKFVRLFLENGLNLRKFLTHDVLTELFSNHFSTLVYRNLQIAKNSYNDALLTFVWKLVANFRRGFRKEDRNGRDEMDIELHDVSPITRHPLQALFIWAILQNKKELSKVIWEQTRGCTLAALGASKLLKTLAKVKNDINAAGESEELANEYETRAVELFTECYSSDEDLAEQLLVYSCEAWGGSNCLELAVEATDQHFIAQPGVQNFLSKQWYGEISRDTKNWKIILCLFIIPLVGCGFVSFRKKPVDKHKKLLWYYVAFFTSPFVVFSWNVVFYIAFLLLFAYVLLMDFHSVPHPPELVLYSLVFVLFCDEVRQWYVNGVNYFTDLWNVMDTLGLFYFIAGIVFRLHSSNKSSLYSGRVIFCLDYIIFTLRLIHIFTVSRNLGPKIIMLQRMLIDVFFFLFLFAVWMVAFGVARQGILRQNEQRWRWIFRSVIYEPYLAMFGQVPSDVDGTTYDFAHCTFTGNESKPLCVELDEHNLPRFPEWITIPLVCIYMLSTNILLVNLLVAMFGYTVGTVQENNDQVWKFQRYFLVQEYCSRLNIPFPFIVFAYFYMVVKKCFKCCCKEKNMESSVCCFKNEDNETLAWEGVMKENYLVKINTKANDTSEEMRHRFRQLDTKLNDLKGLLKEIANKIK
# assayExplanation: Luminescence readout assay for measuring intracellular calcium, icilin activation
# Format: cell-based
# appliedConditions: CHO cells expressing human TRPM8, aequorin luminescence, 1 μM icilin activation; read-out: hTRPM8 IC50
Flag rule - IC50 less than 40 nM flags condition met; the remaining entries get condition not met.

O=C(N[C@@H](c1ccc(C(F)(F)F)cc1)c1ncccc1F)c1c[nH]c(=O)c(Br)c1 | condition met

Now look at this one.
[ask] Given CC1(C)C[C@H]1c1cccnc1[C@@H](NC(=O)c1ccc2cccnc2c1)c1ccc(C(F)(F)F)cc1 , is recorded IC50 strictly lower than 40 nM?
[reply] condition met
